Biological target: pooled human IgG (human IgG1, 2, 3 and 4)
Enzyme Activity Endpoint Assay (purified): Fc: recorded values
value type: Enzyme Activity Endpoint Assay (purified): Fc (ng/µL)

protein	value observed
PRT-549 (protein) MANQEIRYSEDTPSHITSVWTKGVTPPTQFIQNEDVLHAPYIANQGWYDITKTFNGKDDLLCGAATAGNMLHWWFDQNKEQIEAYLKKYPEKQKINFNGEQMFDVKEAIDTKDSQTDSALFNYFKDKAFPYLSTKHLGVFPDHVIDMFINGYRLSLTNHGPTPVKNQTKDPRGGIFDAVFTRGDQSKLLTARHDFKEKTLKEISQLIKQELTEGKALGLSHTYANVRINHVINLWGADFNAEGNLEAIYVTDSDSNASIGMKKYYVGVNAAGKVAISAKEIEGDNIGAQVLGLFTLSTGQDIWQQTNLEHHHHHH	491
PRT-433 (protein) MSQTEDSESLQRLRDIEDFQAEKKKQNVVYTKWLDGVDVKDHDFRKIVDGNIAYYATPLLNGRGFYDINKDFNRDSDKCAAAVAANMFHYWLDRNRDNVDRFLRQNPEKHGIIELPDGQLKLSDFLNTYESDDGYRDKSKLFDFISNNFNGPVWTDKLLDNYINGYAYNYKYGRTIEDPTKNTSKINFFKEVFNEKILTNNHSIRNQNEFSVLLIEALYTGKAIGLSYGPAGLRHSLGHIISVWGADLDADGNVVAIYVTDSDDKKLTIGDERVGLKRYKISTDDEGRLRLTAYEETHNTGGQIRGLWTLDTGKQAWADYFDKTEQTGTDQAEQ	489
PRT-423 (protein) MTITSVWTKGVTPPTPEDFRYNNEDVLHAPYVANQGWYDITKTFDGKDNLLCGAATAGNMLHWWFDQNKEEIERYLKKHPEKQKIIFNNQELFDVKAAIDTKDSQTNSKLFNYFRDKAFPNLSARQLGVMPDLVLDMFINGYYLNLGKTQSTDVNRPYQDKDKRGGIFDAVFTRGDQTTLLTARHDLKNKGLNEISDLIKQELTEGKALALSHTYANVRINHVINLWGADFDAEGNLIAIYVTDSDANASIGMKKYFVGRNANGKVAISAKKIEGDNIGAQVLGLFTLSTGQDIWQKLS	0
PRT-663 (protein) MQITSVWTKGVTPPTPEQFRYNNEDVIHAPYLAHQGWYDITKTFDGKDNLLCGAATAGNMLHWWFDQNKTEIEAYLSKHPEKQKIIFNNQELFDLKEAINTKDSQTNSQLFNYFRDKAFPNLSARQLGVMPDLVLDMFINGYYLNVFKTQSTDVNRPYQDKDKRGGIFDAVFTRGDQTKLLTARHDLKNKGLNEISTLIKQELTEGKALALSHTYANVSISHVINLWGADFNAEGNLEAIYVTDSDANASIGMKKYFVGINASGHVAISAKKIEGENIGAQVLGLFTLSTGKDIWQKLSLEHHHHHH	456
PRT-694 (protein) MTITSVWTKGVTPPTPEDFRYNNEDVLHAPYVANQGWYDITKTFDGKDNLLCGAATAGNMLHWWFDQNKEEIERYLKKYPEKQKIIFNNQELFDVRAAINTKDSQTNSKLFNYFRDKAFPNLSARQLGVMPDLVLDMFINGYYLNLGKTQSTDVNRPYQDKDKRGGIFDAVFNRGDQTTLLTARHDLKNKGLNEISDLIKQELSSGKALALSHTYANVRINHVINLWGADFDAEGNLIAIYVTDSDANSNIGMKKYKVGVNANGKVAISAKKIEGDNIGAQVLGLFTLSTGQDIWQKLSLEHHHHHH	0

These entries and their values trace back to patent US20250027068.
